Biological target: human cathepsin K (Homo sapiens)
Construct: purchased Enzo Life Sciences, Lörrach, Germany
Sequence (P43235 115-329): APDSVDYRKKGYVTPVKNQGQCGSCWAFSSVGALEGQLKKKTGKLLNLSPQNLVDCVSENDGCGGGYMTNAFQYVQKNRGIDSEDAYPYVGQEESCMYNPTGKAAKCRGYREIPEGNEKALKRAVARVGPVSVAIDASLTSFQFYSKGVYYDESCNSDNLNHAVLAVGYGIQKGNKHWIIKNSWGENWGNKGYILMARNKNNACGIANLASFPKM
Assay: Cathepsin K inhibition assay (Cbz-Leu-Arg-AMC)
Assay type: biochemical
Conditions: 20 µM inhibitor, 60 min; read-out: Residual activity @ 20 µM (%) Cat K
Here the recorded remaining activity at 20 µM is given for each entry.

[
  {
    "COMPOUND": "CC(C)CC(NC(=O)Oc1ccc(NC(=O)C(c2ccccc2)c2ccccc2)c(Br)c1)C(=O)N1CCCC1C(=O)O (centres unmarked)",
    "READOUT_UNIT": "%",
    "remaining activity at 20 µM": 90
  },
  {
    "COMPOUND": "CC(C)CC(NC(=O)Oc1ccccc1)C(=O)NC(Cc1ccccc1)C(=O)O (centres unmarked)",
    "READOUT_UNIT": "%",
    "remaining activity at 20 µM": 77
  },
  {
    "COMPOUND": "CC(C)CC(CNC(=O)Oc1ccc(Cl)cc1)C(=O)N1CCC[C@@H]1C(=O)O (some centres unmarked)",
    "READOUT_UNIT": "%",
    "remaining activity at 20 µM": 85
  },
  {
    "COMPOUND": "CC(C)C[C@H](NC(=O)Oc1ccc(NC(=O)N(Cc2ccccc2)Cc2ccccc2)c(Br)c1)C(=O)N1CCC[C@H]1C(=O)O",
    "READOUT_UNIT": "%",
    "remaining activity at 20 µM": 83
  },
  {
    "COMPOUND": "CC(C)CC(C(=O)NC(Cc1ccccc1)C(=O)O)N(C)C(=O)Oc1ccc(Cl)cc1 (centres unmarked)",
    "READOUT_UNIT": "%",
    "remaining activity at 20 µM": 76
  },
  {
    "COMPOUND": "CC(C)CC(CNC(=O)Oc1ccc(Cl)cc1)C(=O)N[C@H](Cc1ccccc1)C(=O)O (some centres unmarked)",
    "READOUT_UNIT": "%",
    "remaining activity at 20 µM": 70
  },
  {
    "COMPOUND": "CC(C)C[C@H](NC(=O)Nc1ccc(Cl)cc1)C(=O)N1CCC[C@H]1C(=O)O",
    "READOUT_UNIT": "%",
    "remaining activity at 20 µM": 92
  },
  {
    "COMPOUND": "CC(C)C[C@H](NC(=O)Oc1ccc(Cl)cc1)C(=O)N1CCCC[C@H]1C(=O)O",
    "READOUT_UNIT": "%",
    "remaining activity at 20 µM": 93
  }
]

---

Target: human cathepsin K (Homo sapiens)
Construct: purchased Enzo Life Sciences, Lörrach, Germany
Experiment: Cathepsin K inhibition assay (Cbz-Leu-Arg-AMC)
Type: biochemical
Details: 20 µM inhibitor, 60 min; read-out: Residual activity @ 20 µM (%) Cat K
Protocol: 1. Enzyme Inhibition Assays and Kinetic Data of Inhibition of Cathepsins B, L, K and S General. Human cathepsins were assayed either fluorimetrically or spectrophotometrically as noted below. The 10 mM inhibitor solutions were prepared in DMSO. The final concentration of DMSO in all assays was 2%. […] Residual cathepsin activity at an inhibitor concentration of 20 µM was determined from duplicate measurements based on the product formation after 60 min. […] Progress curves were monitored for 60 min. […]

[
  {
    "COMPOUND": "CC(C)C[C@H](NC(=O)Oc1ccc(Cl)cc1)C(=O)N[C@@H](Cc1ccccc1)C(=O)O [Compound 4]",
    "remaining activity at 20 µM, %": 92
  },
  {
    "COMPOUND": "O=C(NC(CC1CCCCC1)C(=O)NC(Cc1ccccc1)C(=O)O)Oc1ccc(Cl)cc1 (stereo not shown) [Compound 7]",
    "remaining activity at 20 µM, %": 60
  },
  {
    "COMPOUND": "CC(C)C[C@H](NC(=O)Oc1ccc(Cl)c(NC(=O)Cc2ccccc2)c1)C(=O)N1CCC[C@H]1C(=O)O [Compound 20]",
    "remaining activity at 20 µM, %": 82
  },
  {
    "COMPOUND": "CC(C)C[C@@H](C(=O)N1CCC[C@H]1C(=O)O)N(C)C(=O)Oc1ccc(Cl)cc1 [Compound 15]",
    "remaining activity at 20 µM, %": 91
  },
  {
    "COMPOUND": "CC(C)C[C@H](NC(=O)Oc1cccc(Cl)c1)C(=O)N1CCC[C@H]1C(=O)O [Compound 23]",
    "remaining activity at 20 µM, %": 87
  },
  {
    "COMPOUND": "CC(C)C[C@H](NC(=O)Oc1ccc(Cl)cc1)C(=O)N1CCC[C@H]1C(=O)O [Compound 8]",
    "remaining activity at 20 µM, %": 91
  },
  {
    "COMPOUND": "CC(C)CC(NC(=O)Oc1ccc(NC(=O)C(c2ccccc2)c2ccccc2)c(Cl)c1)C(=O)N1CCCC1C(=O)O (stereo not shown) [Compound 28]",
    "remaining activity at 20 µM, %": 83
  }
]
